FYI, the data here is from patent USRE38333E1.

Recorded Biological t½ (min) (Dog) Plasma for the following molecules
format: in vitro ADME; conditions: 37° C., 20 μg/mL
measure: Biological t½ (min) (Dog) Plasma

>  <molecule>
C[C@H](Cn1cnc2c(N)ncnc21)OCP(=O)(OCOC(=O)NC(C)(C)C)OCOC(=O)NC(C)(C)C

>  <comparative.sign>
=

>  <measured.result>
99.5

$$$$
>  <molecule>
CC(C)COC(=O)OCOP(=O)(CO[C@H](C)Cn1cnc2c(N)ncnc21)OCOC(=O)OCC(C)C

>  <comparative.sign>
<

>  <measured.result>
5

$$$$
>  <molecule>
CCOC(=O)OC(C)OP(=O)(CO[C@H](C)Cn1cnc2c(N)ncnc21)OC(C)OC(=O)OCC (some centres unmarked)

>  <comparative.sign>
=

>  <measured.result>
42.6

$$$$
>  <molecule>
C[C@H](Cn1cnc2c(N)ncnc21)OCP(=O)(OCOC(=O)OC(C)(C)C)OCOC(=O)OC(C)(C)C

>  <comparative.sign>
=

>  <measured.result>
21.2

$$$$
>  <molecule>
CCCCOC(=O)OCOP(=O)(CO[C@H](C)Cn1cnc2c(N)ncnc21)OCOC(=O)OCCCC [Bis-nBuCOM PMPA, Bis-n-butyl Oxymethyl Carbonate of PMPA]

>  <comparative.sign>
<

>  <measured.result>
5

$$$$
